The measured values listed here are drawn from PubChem BioAssay (NCI).

tested on: HOP-92 NSCLC; assay: NCI tumour cell line growth inhibition, 48 h; in the data active means GI50 below about 0.43 µM; inactive means the rest
Classes used: TRUE (active), FALSE (inactive)

Compound	Class label
O=c1[nH]ncc(Br)c1Br	FALSE
OCc1c[nH]c2ccccc12	FALSE
COc1cc(C2=NOC(c3cc(OC)c(OC)c(OC)c3)C2)ccc1OCCCCOc1cc2c(cc1OC)C(=O)N1CCC[C@H]1C=N2 (some centres undefined)	TRUE
CCN(CC)c1ccc(/C=C/c2ccc3cc(C)ccc3[n+]2CC)cc1	TRUE
N#Cc1c(-c2ccc(F)cc2)nc(N/N=C/c2c[nH]c3ccccc23)nc1N1CCOCC1	FALSE
N#CSc1c[nH]c2cccc(/C=C/C(=O)/C=C(/C=C/c3cccc4[nH]cc(SC#N)c34)OB(F)F)c12	TRUE
CS(=O)(=O)c1ccc([C@H]2O[C@@H](CO)C[C@]2(O)c2ccc(S(C)(=O)=O)cc2)cc1	FALSE
Nc1nc(Cl)c2ncn(Cc3ccc(C45CC6CC(CC(C6)C4)C5)c(O)c3)c2n1	FALSE
Cn1c2ccccc2c2c(-c3ccccc3)[n+]3ccncc3nc21	FALSE

* * *

Known TGI of a selection of compounds
system: SF-295 CNS; assay: NCI tumour cell line growth inhibition, 48 h
Value kind: TGI

Compound	Experimental system	Test result
CCN1CCC(O)(C(C(=O)O)c2ccccc2)CC1 (stereo unspecified)	SF-295 CNS	> 100 µM
Brc1cc2nn(-c3ccccc3)nc2c2nonc12	SF-295 CNS	> 100 µM
CC1(C)CNC(=O)C2(C=NC(C)(C)CNC(=O)C3(C=N1)CCCO3)CCCO2 (stereo unspecified)	SF-295 CNS	> 10 µM
COc1cc2c(/C=C3/C(=O)Nc4ccccc43)c(Cl)[nH]c2cc1C	SF-295 CNS	1.19 µM
CSc1nc2c(c(=O)n1C)N=C(c1ccccc1)[C@H](C(CC(=O)c1ccccc1)c1ccccc1)C(c1ccccc1)N2 (stereo partly specified)	SF-295 CNS	> 100 µM
CCC(=O)Oc1c2ccsc2c(OC(=O)CC)c2ccsc12	SF-295 CNS	0.675 µM
c1ccc(/C(=N/Nc2ccccn2)c2ncccn2)cc1	SF-295 CNS	> 44.6 µM
O=C(CC1=NCCN1)c1ccccc1	SF-295 CNS	> 750 µM
Cc1cc2[nH]c3c(C#N)c4c(c(=O)n3c2cc1C)CCCC4	SF-295 CNS	29.5 µM
COc1cc(C2=C(c3ccccc3)COC2=O)cc(OC)c1OC	SF-295 CNS	2.9 µM
CC[C@@H]1CN(C)[C@H]2Cc3c([nH]c4ccccc34)C(=O)C[C@H]1C2C(=O)OC (stereo partly specified)	SF-295 CNS	> 100 µM

* * *

tested on: NCI/ADR-RES ovarian; test: NCI tumour cell line growth inhibition, 48 h; in the data active = GI50 below about 0.43 µM; inactive = the rest
Possible outcomes: t = active, f = inactive

Compound	Experimental system	Class label
FC(F)(F)c1cccc(Nc2nccc(-c3cnn4nc(-c5ccccc5)ccc34)n2)c1	NCI/ADR-RES ovarian	f
O=C1c2cc(Cl)ccc2S(=O)(=O)c2c(NCCCNCCO)nc3ccccc3c21	NCI/ADR-RES ovarian	f
COc1cc(C2=NOC(c3cc(OC)c(OC)c(OC)c3)C2)ccc1OCCCCOc1cc2c(cc1OC)C(=O)N1CCC[C@H]1C=N2 (stereo partly drawn)	NCI/ADR-RES ovarian	f
CC(C)(C)OC(=O)N1CCc2c(sc3ncnc(N/N=C/c4cccc5ccccc45)c23)C1	NCI/ADR-RES ovarian	f
CC[CH2][Sn]([CH2]CC)([O]C(=O)c1cccnc1SC)[O][Sn]([CH2]CC)([CH2]CC)[O]C(=O)c1cccnc1SC	NCI/ADR-RES ovarian	f
CN1CCN(C(=O)OCc2nc3c(N4CCOCC4)nc(Cl)nc3n2C)CC1	NCI/ADR-RES ovarian	f
CC(=O)OC[C@]1(C)C=C2C(=O)[C@](C)(O)C3(CC3)C(C)=C2[C@H]1O	NCI/ADR-RES ovarian	t
N#CSc1c[nH]c2cccc(/C=C/C(=O)/C=C(/C=C/c3cccc4[nH]cc(SC#N)c34)OB(F)F)c12	NCI/ADR-RES ovarian	f
Nc1nc(Cl)c2ncn(Cc3ccc(C45CC6CC(CC(C6)C4)C5)c(O)c3)c2n1	NCI/ADR-RES ovarian	f
N#Cc1ccc(O)c(C2=NCC(c3cccc(Oc4ccccc4)c3)O2)c1 (stereo not drawn)	NCI/ADR-RES ovarian	t
C[C@@H]1OC(O)[C@@H](F)[C@H](O)[C@@H]1O (stereo partly drawn)	NCI/ADR-RES ovarian	f
O=c1[nH]ncc(Br)c1Br	NCI/ADR-RES ovarian	f
C=C1C(=O)O[C@H]2[C@H]1CC/C(COC(=O)c1ccc3ccccc3c1)=C\CC[C@@]1(C)O[C@@H]21	NCI/ADR-RES ovarian	f
